Target: ScAbp1
Assay: SPOT peptide array binding signal intensity (averaged, normalized) (arbitrary units (background-subtracted, floor 0; scale differs between SH3 domains)); higher = stronger binding of the SH3 domain to the peptide
Assign SPOT peptide array binding signal intensity to each entry below.
Numbers only.

In [3]: df
Out[3]:
            binder  assay_result
0  RVTRKRPREPKSTND            50
1  RLSRLLLSLPPESFT            49

Find the recorded SPOT peptide array binding signal intensity belonging to MKRSRPSRSIPYTTP and report it.
20
